- Tested on: Rattus norvegicus
- assay-method-text: Inhibition of prednisilone-induced TAT level in Sprague-Dawley rats at 100 mg/kg, po
- Type: functional
Would you mind labelling by inhibition in vivo at 100 mg/kg? At or over 50% is condition met, under is condition not met.

> print(dat)
                         compound.structure              class
1  CC#C[C@]1(O)CC[C@H]2[C@@H]3CCC4=CC(=O)CCC4=C3[C@@H](c3ccc(N(C)Cc4ccc(C(=O)NCc5cccc(C(=O)O)c5)cc4)cc3)C[C@@]21C  condition not met
2  CC#C[C@]1(O)CC[C@H]2[C@@H]3CCC4=CC(=O)CCC4=C3[C@@H](c3ccc(N(C)Cc4ccc(CC(=O)O)cc4)cc3)C[C@@]21C      condition met
3  CC#C[C@]1(O)CC[C@H]2[C@@H]3CCC4=CC(=O)CCC4=C3[C@@H](c3ccc(N(C)Cc4ccc(C(=O)NCC(=O)O)cc4)cc3)C[C@@]21C  condition not met
4  CC#C[C@]1(O)CC[C@H]2[C@@H]3CCC4=CC(=O)CCC4=C3[C@@H](c3ccc(N(C)CC(=O)N(C)Cc4cccc(C(=O)O)c4)cc3)C[C@@]21C  condition not met
5  CC#C[C@]1(O)CC[C@H]2[C@@H]3CCC4=CC(=O)CCC4=C3[C@@H](c3ccc(N(C)Cc4ccc(C(=O)O)cc4)cc3)C[C@@]21C      condition met
6  CC#C[C@]1(O)CC[C@H]2[C@@H]3CCC4=CC(=O)CCC4=C3[C@@H](c3ccc(N(C)C)cc3)C[C@@]21C      condition met
7  CC#C[C@]1(O)CC[C@H]2[C@@H]3CCC4=CC(=O)CCC4=C3[C@@H](c3ccc(N(C)Cc4ccc(C(=O)N[C@H](CCSC)C(=O)O)cc4OC)cc3)C[C@@]21C  condition not met
